Where these numbers come from: paper PMC12655338

experimentalSystem: UniProt Q9UM07
Sequence (Q9UM07 whole entry): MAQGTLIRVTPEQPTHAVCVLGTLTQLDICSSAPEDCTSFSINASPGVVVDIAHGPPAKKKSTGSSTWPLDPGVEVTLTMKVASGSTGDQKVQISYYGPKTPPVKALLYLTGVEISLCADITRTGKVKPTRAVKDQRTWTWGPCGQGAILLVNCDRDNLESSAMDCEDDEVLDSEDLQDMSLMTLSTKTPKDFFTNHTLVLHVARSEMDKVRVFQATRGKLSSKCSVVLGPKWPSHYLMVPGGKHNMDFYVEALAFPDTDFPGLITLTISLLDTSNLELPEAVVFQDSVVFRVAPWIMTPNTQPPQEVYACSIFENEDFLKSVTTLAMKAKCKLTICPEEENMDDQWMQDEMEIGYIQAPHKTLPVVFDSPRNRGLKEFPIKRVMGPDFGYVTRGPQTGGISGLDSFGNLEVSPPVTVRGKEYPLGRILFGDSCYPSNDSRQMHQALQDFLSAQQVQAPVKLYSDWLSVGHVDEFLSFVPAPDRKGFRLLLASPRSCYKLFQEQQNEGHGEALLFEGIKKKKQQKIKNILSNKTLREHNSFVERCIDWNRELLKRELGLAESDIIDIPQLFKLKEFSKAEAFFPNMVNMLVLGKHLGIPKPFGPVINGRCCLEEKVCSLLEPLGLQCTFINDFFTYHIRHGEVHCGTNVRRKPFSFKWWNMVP
experimentalEndpoint: pIC50
Field pIC50 (float): negative decimal logarithm of the concentration in molar.

response.value for CN(C)c1ccc2cc(C(=O)N[C@@H](CCCNC(=N)CCl)C(=O)NCc3ccccc3)ccc2c1 (field: pIC50) = 5.39
